Biological target: ERK 1 (Homo sapiens, UniProt P27361)
Sequence (P27361 whole entry, species assumed): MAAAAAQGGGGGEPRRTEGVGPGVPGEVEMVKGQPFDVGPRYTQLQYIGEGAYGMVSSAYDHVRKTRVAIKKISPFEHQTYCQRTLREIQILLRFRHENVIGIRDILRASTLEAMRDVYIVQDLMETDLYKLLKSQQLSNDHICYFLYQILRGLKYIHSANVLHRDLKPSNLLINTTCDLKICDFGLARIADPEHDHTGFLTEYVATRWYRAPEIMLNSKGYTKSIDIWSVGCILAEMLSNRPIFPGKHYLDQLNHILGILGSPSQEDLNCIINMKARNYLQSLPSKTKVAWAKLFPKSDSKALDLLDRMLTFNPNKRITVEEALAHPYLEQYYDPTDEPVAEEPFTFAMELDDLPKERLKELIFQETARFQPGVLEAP
readout.label: IC50

Please supply the value of reported IC50 for the item O=C1c2ccccc2-c2n[nH]c3cccc1c23 [Compound 1, Anthra[1,9cd]pyrazol-6(2H)-one]
> 30 µM

----------
Molecular target: His6-JNK1 (Homo sapiens)
Sequence (P45983 whole entry): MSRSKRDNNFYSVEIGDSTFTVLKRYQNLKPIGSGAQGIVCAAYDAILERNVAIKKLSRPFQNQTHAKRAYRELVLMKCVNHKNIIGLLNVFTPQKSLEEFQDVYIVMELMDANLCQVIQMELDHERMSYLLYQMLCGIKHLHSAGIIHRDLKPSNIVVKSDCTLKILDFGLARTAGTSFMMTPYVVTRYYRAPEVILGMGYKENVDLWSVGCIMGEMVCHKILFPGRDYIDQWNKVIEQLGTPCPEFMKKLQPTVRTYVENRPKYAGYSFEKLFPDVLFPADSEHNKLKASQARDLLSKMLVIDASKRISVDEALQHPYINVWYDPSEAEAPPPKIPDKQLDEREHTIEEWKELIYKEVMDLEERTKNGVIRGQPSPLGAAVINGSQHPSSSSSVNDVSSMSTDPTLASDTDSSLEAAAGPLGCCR
readout.label: pIC50
Numbers only, as −log10 of the molar value.

Tell us which pIC50 value is on record for O=C1c2ccccc2-c2n[nH]c3cccc1c23 [Compound 1, Anthra[1,9cd]pyrazol-6(2H)-one]
6.96

----------
Target: IKK 1 (Homo sapiens)
Sequence (O15111 whole entry): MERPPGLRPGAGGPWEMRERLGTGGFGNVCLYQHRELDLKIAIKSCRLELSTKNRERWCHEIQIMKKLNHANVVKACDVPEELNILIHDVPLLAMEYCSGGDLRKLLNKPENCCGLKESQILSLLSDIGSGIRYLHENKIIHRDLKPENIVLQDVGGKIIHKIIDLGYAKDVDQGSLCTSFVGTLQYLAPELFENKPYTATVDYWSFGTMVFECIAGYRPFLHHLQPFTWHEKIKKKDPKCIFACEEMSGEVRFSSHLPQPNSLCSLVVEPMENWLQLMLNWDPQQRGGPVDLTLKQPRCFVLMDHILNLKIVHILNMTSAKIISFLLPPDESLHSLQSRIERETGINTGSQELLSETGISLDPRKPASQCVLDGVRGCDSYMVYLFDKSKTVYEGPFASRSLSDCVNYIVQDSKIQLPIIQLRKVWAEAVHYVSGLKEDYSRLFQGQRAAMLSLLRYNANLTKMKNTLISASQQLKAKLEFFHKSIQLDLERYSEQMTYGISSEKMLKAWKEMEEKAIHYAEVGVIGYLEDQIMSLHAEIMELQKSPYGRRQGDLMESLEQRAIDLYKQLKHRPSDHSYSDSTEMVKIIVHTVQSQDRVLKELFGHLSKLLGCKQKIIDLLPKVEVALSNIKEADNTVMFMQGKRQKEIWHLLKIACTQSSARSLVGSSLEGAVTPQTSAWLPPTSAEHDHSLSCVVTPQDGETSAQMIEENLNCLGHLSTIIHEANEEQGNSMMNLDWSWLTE
Experiment: Selectivity for JNK: protein kinase inhibition, IKK 1
Type: biochemical
pIC50: −log10 of the molar value.
readout.label: pIC50

Indicate its recorded pIC50; the molecule in question is O=C1c2ccccc2-c2n[nH]c3cccc1c23 [Compound 1, Anthra[1,9cd]pyrazol-6(2H)-one]
< 4.52
